biological target: recombinant BCL-wΔC (UniProt Q92843); assay: fluorescence polarization (FPA), FITC-SAHB with recombinant anti-apoptotic protein [lower table]
Sequence (Q92843 1-164, stated change not applied): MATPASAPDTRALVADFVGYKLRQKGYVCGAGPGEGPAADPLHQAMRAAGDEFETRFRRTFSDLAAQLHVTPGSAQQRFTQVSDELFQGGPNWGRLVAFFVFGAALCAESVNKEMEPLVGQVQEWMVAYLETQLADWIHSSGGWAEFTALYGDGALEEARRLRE
pKd: −log10 of the molar value. Bridges are numbered along the chain shown (N, C = ends). Where no end group is shown, it is not given here. [ ]: non-standard residue; d: D form. The star is where a group is joined. FITC = O=C1OC2(c3ccc(O)cc3Oc3cc(O)ccc32)c2ccc(NC(=S)*)cc21; S5 = C=CCCC[C@](C)(N)C(=O)O; Nle = CCCC[C@H](N)C(=O)O
assayMetric: pKd

binder	pKd
{FITC}-QWAREIGAQLR[S5][Nle]AD[S5]LNAQY (staple 12-16, domain: BH3) [PUMA SAHB]	7.74
{FITC}-QVGRQLA[S5]IGD[S5]INRRYD (staple 8-12, also called FITC-BAK SAHB; BAK BH3 helix) [BAK SAHB]	7.77

a: {FITC}-ASTKKLSESLK[S5]IGD[S5]LDSN (staple 12-16, domain: BH3) [BAX SAHB]
b: {FITC}-DIIRNIARHLA[S5]VGD[S5][Nle]DRSIRR (staple 12-16, domain: BH3) [BID SAHB]
Look at a and b . Which one has the lower recorded pKd number? Refer to your chosen entry by its label in the reply.
b
